Target: NMDA receptor (Rattus norvegicus, UniProt P35439+Q00960)
Construct: other: test compound in the absence of spermine; concentration at 50% of maximum stimulation; % Sti; spermine = 100; other: with and without spermine; absence of spermine; % STI; absence
Sequence (Q00960 27-1482, other chains not shown): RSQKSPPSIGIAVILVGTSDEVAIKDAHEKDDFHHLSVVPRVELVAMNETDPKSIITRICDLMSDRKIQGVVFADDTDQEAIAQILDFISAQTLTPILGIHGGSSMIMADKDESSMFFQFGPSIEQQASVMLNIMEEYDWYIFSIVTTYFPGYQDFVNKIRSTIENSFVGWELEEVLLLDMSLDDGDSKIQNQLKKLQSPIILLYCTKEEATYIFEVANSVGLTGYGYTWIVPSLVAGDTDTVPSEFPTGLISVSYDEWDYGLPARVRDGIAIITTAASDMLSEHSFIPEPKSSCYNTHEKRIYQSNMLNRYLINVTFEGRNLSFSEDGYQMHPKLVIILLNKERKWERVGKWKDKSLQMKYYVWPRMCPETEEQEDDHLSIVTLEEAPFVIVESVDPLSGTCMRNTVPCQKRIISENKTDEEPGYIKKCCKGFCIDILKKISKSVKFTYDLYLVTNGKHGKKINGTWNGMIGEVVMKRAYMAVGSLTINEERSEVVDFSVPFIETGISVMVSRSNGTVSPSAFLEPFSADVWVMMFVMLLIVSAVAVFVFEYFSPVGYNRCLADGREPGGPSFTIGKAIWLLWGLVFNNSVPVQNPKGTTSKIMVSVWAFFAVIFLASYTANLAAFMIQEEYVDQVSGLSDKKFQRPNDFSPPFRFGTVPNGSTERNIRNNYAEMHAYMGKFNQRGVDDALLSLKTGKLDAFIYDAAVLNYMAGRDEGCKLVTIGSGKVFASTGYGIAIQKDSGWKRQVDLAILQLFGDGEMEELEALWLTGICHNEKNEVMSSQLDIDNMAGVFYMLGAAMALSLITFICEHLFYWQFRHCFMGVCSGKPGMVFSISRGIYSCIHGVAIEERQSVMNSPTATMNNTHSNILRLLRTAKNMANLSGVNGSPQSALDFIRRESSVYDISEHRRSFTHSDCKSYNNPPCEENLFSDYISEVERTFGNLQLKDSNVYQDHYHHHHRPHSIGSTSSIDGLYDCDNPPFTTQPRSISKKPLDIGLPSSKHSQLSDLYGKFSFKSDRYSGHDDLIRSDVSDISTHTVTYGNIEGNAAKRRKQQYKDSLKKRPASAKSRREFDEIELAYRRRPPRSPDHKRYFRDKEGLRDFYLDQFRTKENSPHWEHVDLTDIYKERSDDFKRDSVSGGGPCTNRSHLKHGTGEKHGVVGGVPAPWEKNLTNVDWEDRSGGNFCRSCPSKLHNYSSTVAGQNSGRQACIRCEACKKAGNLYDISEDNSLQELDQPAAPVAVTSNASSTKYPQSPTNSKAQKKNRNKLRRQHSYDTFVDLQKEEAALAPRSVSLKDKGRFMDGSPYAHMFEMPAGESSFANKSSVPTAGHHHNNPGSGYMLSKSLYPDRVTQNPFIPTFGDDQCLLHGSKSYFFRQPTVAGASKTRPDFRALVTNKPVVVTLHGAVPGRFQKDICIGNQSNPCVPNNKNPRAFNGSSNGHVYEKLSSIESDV
Experiment: biochemical
Type: binding
Details: read-out: % Sti
Hi there, I'd appreciate the recorded Emax for every entry that follows.

As a guide, the following entries are already answered.
compound="CC[C@H](C)[C@H](NC(=O)[C@H](CC(C)C)NC(=O)[C@H](CO)NC(=O)[C@H](CCC(N)=O)NC(=O)[C@H](CC(N)=O)NC(=O)[C@H](CC(C(=O)O)C(=O)O)NC(=O)[C@H](CCC(N)=O)NC(=O)[C@H](CC(C)C)NC(=O)[C@H](CC(C(=O)O)C(=O)O)NC(=O)[C@H](CC(C(=O)O)C(=O)O)NC(=O)[C@H](CCC(=O)O)NC(=O)CN)C(=O)N[C@@H](CCCNC(=N)N)C(=O)N[C@@H](CC(C(=O)O)C(=O)O)C(=O)N[C@@H](CCCCN)C(=O)N[C@@H](CO)C(=O)N[C@@H](CC(N)=O)C(N)=O [Ser10-Con-G, GEggLQgNQSLIRgKSN]" testedtarget="NMDA receptor (Rattus norvegicus, UniProt P35439+Q00960)" result=0%
compound="CC[C@H](C)[C@H](NC(=O)[C@H](CC(C)C)NC(=O)[C@H](CCC(=O)O)NC(=O)[C@H](CCC(N)=O)NC(=O)[C@H](CC(N)=O)NC(=O)[C@H](CCC(=O)O)NC(=O)[C@H](CCC(N)=O)NC(=O)[C@H](CC(C)C)NC(=O)[C@H](CCC(=O)O)NC(=O)[C@H](CCC(=O)O)NC(=O)[C@H](CCC(=O)O)NC(=O)CN)C(=O)N[C@@H](CCCNC(=N)N)C(=O)N[C@@H](CCC(=O)O)C(=O)N[C@@H](CCCCN)C(=O)N[C@@H](CO)C(=O)N[C@@H](CC(N)=O)C(N)=O [Glu3,4,7,10,14-Con-G]" testedtarget="NMDA receptor (Rattus norvegicus, UniProt P35439+Q00960)" result=79%
compound="CC[C@H](C)[C@H](NC(=O)[C@H](CC(C)C)NC(=O)[C@@H](CCC(=O)O)NC(=O)[C@H](CCC(N)=O)NC(=O)[C@H](CC(N)=O)NC(=O)[C@@H](CCC(=O)O)NC(=O)[C@H](CCC(N)=O)NC(=O)[C@H](CC(C)C)NC(=O)[C@@H](CCC(=O)O)NC(=O)[C@@H](CCC(=O)O)NC(=O)[C@@H](CCC(=O)O)NC(=O)CN)C(=O)N[C@@H](CCCNC(=N)N)C(=O)N[C@H](CCC(=O)O)C(=O)N[C@@H](CCCCN)C(=O)N[C@@H](CO)C(=O)N[C@@H](CC(N)=O)C(N)=O [D-Glu3,4,7,10,14-Con-G, GdEdEdELQdENQdELIRdEKSN]" testedtarget="NMDA receptor (Rattus norvegicus, UniProt P35439+Q00960)" result=30%

As a next step, examine the compound that follows.
Problem: Reported Emax for CC[C@H](C)[C@H](NC(=O)[C@H](CC(C)C)NC(=O)[C@H](C)NC(=O)[C@H](CCC(N)=O)NC(=O)[C@H](CC(N)=O)NC(=O)[C@H](CC(C(=O)O)C(=O)O)NC(=O)[C@H](CCC(N)=O)NC(=O)[C@H](CC(C)C)NC(=O)[C@H](CC(C(=O)O)C(=O)O)NC(=O)[C@H](CC(C(=O)O)C(=O)O)NC(=O)[C@H](CCC(=O)O)NC(=O)CN)C(=O)N[C@@H](CCCNC(=N)N)C(=O)N[C@@H](CC(C(=O)O)C(=O)O)C(=O)N[C@@H](CCCCN)C(=O)N[C@@H](CO)C(=O)N[C@@H](CC(N)=O)C(N)=O [Ala10-Con-G, GEggLQgNQALIRgKSN] : what is it?
Solution: 0%
